These data points were gathered from patent US20240158446A1.

- Target Or Test System: GDP-bound KRAS wild-type protein (Homo sapiens, UniProt P01116)
- Sequence (P01116 whole entry): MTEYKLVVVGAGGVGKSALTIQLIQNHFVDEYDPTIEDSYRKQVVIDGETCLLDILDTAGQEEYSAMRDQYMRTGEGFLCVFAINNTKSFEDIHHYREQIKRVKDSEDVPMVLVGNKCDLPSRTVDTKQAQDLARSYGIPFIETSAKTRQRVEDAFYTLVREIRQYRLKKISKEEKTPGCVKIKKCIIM
- Procedure Details: Binding to KRAS by surface plasmon resonance (SPR), Single Cycle Kinetics
- Condition Details: SPR, Single Cycle Kinetics, GDP-bound KRAS wild-type protein; read-out: KRAS KD
Parameter Kd: see the listing below.
Observation Type: Kd (nM)

Line Notation	Target Or Test System	Value Reported
CCC[C@H]1C(=O)N[C@@H](C2CCCCC2)C(=O)N(C)CC(=O)N(C)[C@H]2C/C=C\CCN(C2=O)[C@@H](Cc2ccc(C(F)(F)F)cc2)C(=O)N(C)CC(=O)N[C@@H](CCc2ccc(C(F)(F)F)c(Cl)c2)C(=O)N2C[C@H](OCC)C[C@H]2C(=O)NC2(CC(C)(C)C2)C(=O)N(C)[C@@H](CC(C)C)C(=O)N(C)[C@H](C(=O)N(C)C)CC(=O)N1C	GDP-bound KRAS wild-type protein (Homo sapiens, UniProt P01116)	1.5
CCCN(C)C(=O)[C@@H]1CC(=O)N(C)[C@@H](COC)C(=O)N[C@@H]([C@@H](C)CC)C(=O)N(C)CC(=O)N(C)[C@H]2C/C=C\CCN(C2=O)[C@@H](Cc2ccc(C(F)(F)F)cc2)C(=O)N(C)CC(=O)N[C@@H](CCc2cc(F)c(C(F)(F)F)c(F)c2)C(=O)N2CCC[C@H]2C(=O)NC2(CC(C)(C)C2)C(=O)N(C)[C@@H](C2CCCC2)C(=O)N1C	GDP-bound KRAS wild-type protein (Homo sapiens, UniProt P01116)	0.2
CCC[C@H]1C(=O)N[C@@H](C2CCCC2)C(=O)N(C)CC(=O)N(C)[C@H]2C/C=C\CCN(C2=O)[C@@H](Cc2ccc(C(F)(F)F)cc2)C(=O)N(C)CC(=O)N[C@@H](CCc2ccc(C(F)(F)F)c(Cl)c2)C(=O)N2CC3(CC3)C[C@H]2C(=O)NC2(CC(C)(C)C2)C(=O)N(C)[C@@H](CC(C)(C)C)C(=O)N(C)[C@H](C(=O)N(C)C)CC(=O)N1C	GDP-bound KRAS wild-type protein (Homo sapiens, UniProt P01116)	0.31
